Tested on: MS2 coat protein
experiment: apparent KD of MS2 coat protein; higher = weaker reporter binding
experimentalParameters: Eterna round: R107; input ligand: theophylline 2 mM
Returns one of condition met or condition not met; condition met when apparent KD of MS2 coat protein is >= 100 nM.

sequenceText: UCGUAGGUAGGAAGGAGCGCAUACUUCACAUGAGGAUCACCCAUGUCGAGACGUGAGUCAGUGCAGGUAGGUCGCCUAGUUAUGA [Same State - Arginine B (Freestyle 24)]
label: condition not met
--
sequenceText: CGAAUAUAGACGGCCGCCACUCUACAAACAUGAGGAUCACCCAUGUUCACAUAGUGGAAACACAUGAGGACCGGGUCAUAGGCUU [#19 Same State - Tryptophan B]
label: condition not met
--
sequenceText: AGCCAUGGAAACAUGGCGGCGGCUUGGGCGCGAGGACCGGUACGGCCGCCACUCGGGCAACAUGAGGAUCACCCAUGUUCCUCAU [ETA NP+V+V2 #18]
label: condition met
--
sequenceText: AAAACAUGAGGAUCACCCAUGUGGUGAGAAGGAGCGUCGGAAAUGACAGGUAGGUCGCUUAUCCGUAAGUAUUAGUGUUAGUACA [SSArg A #1]
label: condition met
--
sequenceText: CUAUAAAUAUGAAGGAGCGUCGAAAAUGGGUAAACAUGAGGAUCACCCAUGUAAAGGGAACGACAGGUAGGUCGCAUAUUUAUAG [AstromonsSSArgB#11]
label: condition met
--
sequenceText: UUUUUCAUAGGUUAUAGUUAAGAAACUGAAGGAGCGUGGUAAUACACAGGUAGGUCGCAGAUUUUACAUGAGGAUCACCCAUGUU [JR_SSArginiA_Sub009]
label: condition not met
--
sequenceText: AUGCAGAACACGGCCGCCACUCAUUGUAGACAUGAGGAUCACCCAUGUAAUAGGGAUAUUUUAUUGAGGACCGGGUGUAAUGCAA [JR_SSTryptoB_Sub013]
label: condition not met
--
sequenceText: UUAUAAGUACCGGUCCUCAGAUCCUCAUGACGAGGACCGGUACGGCCGCCACUCGAAACAUGAGGAUCACCCAUGUAAUAACACU [Brourdmod20]
label: condition not met
--
sequenceText: GACAUGAGGAUCACCCAUGUACCGCGAGAAGGAGCGCGGAUAAACGCAGGUAGGUCGCUCGUGGGCUUACAUUCAAGUGUAAGCU [Usarat]
label: condition met
--
sequenceText: GUCCUCGUGUCCGGUUUAGCGCAAAGCGCACGAGGACCGGUACGGCCGCCACUCGAAACAUGAGGAUCACCCAUGUGAAGAAUAA [Design 1]
label: condition not met
--
sequenceText: AGCCACUCGAGUGAUCCUCACGAGUGGCAACGAGGACCGGUACGGCCGCCACUCGAAUAACAUGAGGAUCACCCAUGUUUAUAAU [#01 Tryptophan A - Same State]
label: condition met

---

System: MS2 coat protein
experiment: apparent KD of MS2 coat protein; designed switch direction (-1 OFF switch, 1 ON switch): -1; higher = weaker reporter binding
experimentalParameters: Eterna round: R95; input ligand: microRNA oligo, concentration not stated
Returns one of 1 (yes) or 0 (no); 1 (yes) when apparent KD of MS2 coat protein is >= 0.03 µM.

sequenceText: UUUCCCUGUGUGAGGAUAUACUUGUUUGGGUUUUUGUAGAAGGCACAUGAGGAUCACCCAUGUACUCUGUCCUG [JR_BME4_Sub022] (puzzle: Brourd's mod of Exclusion 4)
label: 0 (no)

sequenceText: AAGUAUAGAGGAUAUAGUGAGUACUACAUGAGGAUCACCCAUGUUCUUCGAAACGUAUUUCUAGAAGGCUGAUAAA [EX-5 Malc#22] (puzzle: Exclusion 5)
label: 0 (no)

sequenceText: UCGGCGCGAGGAUAUGCGGUUCCUCCCUCGGGCCGGAGCGUACAUGAGGAUCACCCAUGUAGAAGGCGCGCCGC [Apr-15 SS2-36] (puzzle: Exclusion 2)
label: 0 (no)

sequenceText: GGUUGGCGAGGAUAUACAUGAGGAUCACCCAUGUGAGAAAUAAAAGUGAGGAAGAAAAGUAGAAGGCGCUGACG [Mat - Exclusion 3 - Mod of Salish D3] (puzzle: Exclusion 3)
label: 1 (yes)

sequenceText: UUUAAUUUUUUUUUUUUACAAGCUUUUUGCUCGUCUUAUACAUGAGGAUCACCCAUGUGGAUGGAAGAUAAAUUAUC [JMF 9] (puzzle: Sensor v3, turn-off variant 2)
label: 0 (no)
